These data points were gathered from the RNAGym collection of RNA variant scans (doi:10.1073/pnas.2313332121).

Catalogue of polymerase ribozyme fitness (log ratio) readings, one per entry.
B1: TPR 5TU (parent)
chain: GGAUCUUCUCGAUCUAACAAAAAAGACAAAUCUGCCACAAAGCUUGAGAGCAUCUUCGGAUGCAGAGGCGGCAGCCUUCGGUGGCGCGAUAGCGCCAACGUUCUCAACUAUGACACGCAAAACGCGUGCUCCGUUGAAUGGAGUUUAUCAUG

variants of: B1; experiment: polymerase ribozyme fitness, log enrichment relative to wild type (log ratio); higher = more active; in vitro selection for triplet polymerase activity
This sample holds only a part of the variants without activity.

Sample answers from the record:
- RESIDUE CHANGE: "C43U U82G U101G"
  polymerase ribozyme fitness (log ratio): -4.04
- RESIDUE CHANGE: "C76U C85U A138C U144A"
  polymerase ribozyme fitness (log ratio): "≤ -4.2"

Prompt: What polymerase ribozyme fitness (log ratio) value was documented for this variant, U4C C38G G59A U61A U148C ?
Completion: ≤ -4.2

Prompt: Another variant to look at: G48C C118U
Completion: -0.625

Prompt: Another variant to look at: A17U G48A C51G U55G C96G C105U C118U G136U G141U
Completion: ≤ -4.2

Prompt: Another variant to look at: G124C G136A
Completion: -2.84

Prompt: Another variant to look at: U4C G58A G83A C85U
Completion: -1.97

Prompt: Another variant to look at: C14U A21U G50C U56A A66C A91U G143C
Completion: ≤ -4.2

Prompt: Another variant to look at: U56A C57A C85U C87U U144A U146G
Completion: ≤ -4.2
